target: panel of more than 300 wild-type and mutant kinases (313 kinase panel) (Homo sapiens); test: Kinase profiling in a biochemical assay panel (mobility shift assays and ELISA), %-inhibition at 1 μM; selectivity entropy; details: kinase ARG; 1 μM compound
In this section, each of the molecules is paired with its reported %-inhibition, ARG.

- compoundStructureString: "CC(C)(C)c1nc(-c2cccc(NS(=O)(=O)c3c(F)cccc3F)c2F)c(-c2ccnc(N)n2)s1"
  %-inhibition, ARG (%): 54
- compoundStructureString: "CO[C@H]1C[C@@H]2CC[C@@H](C)[C@@](O)(O2)C(=O)C(=O)N2CCCC[C@H]2C(=O)O[C@H]([C@H](C)C[C@@H]2CC[C@@H](OCCO)[C@H](OC)C2)CC(=O)[C@H](C)/C=C(\\C)[C@@H](O)[C@@H](OC)C(=O)[C@H](C)C[C@H](C)/C=C/C=C/C=C/1C"
  %-inhibition, ARG (%): 1.07
- compoundStructureString: "C[C@@H](Oc1cc(-c2cnn(C3CCNCC3)c2)cnc1N)c1c(Cl)ccc(F)c1Cl"
  %-inhibition, ARG (%): 80

These data points were gathered from paper PMC3961306.
